Tested on: Escherichia coli TOP10;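 note: peptides expressed intracellularly from a pBAD plasmid library in pooled LB shake-flask culture, induced with 0.3% L-arabinose, DNA abundance read by NGS, three biological replicates, DESeq2 with apeglm shrinkage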
test_method_notes: shrunken log2 fold change of peptide-encoding DNA abundance (4.5 h post-induction vs induction); higher = less antimicrobial activity (less host growth inhibition)
condition_label: time post-induction: 4.5 h; library: site-saturation at positions 5, 18, 19, 20
measured_parameter: shrunken log2 fold change
Reply briefly: the number, and no unit.

For orientation, consider the following solved cases.
- seq_string: "RRIRSRPPRLPRPRPRPHNRPRP"
  quantitative_readout: 0.0124
- seq_string: "RRIRGRPPRLPRPRPRPRLYPRP"
  quantitative_readout: 0.291
- seq_string: "RRIRLRPPRLPRPRPRPIQHPRP"
  quantitative_readout: -0.213
- seq_string: "RRIRHRPPRLPRPRPRPPVRPRP"
  quantitative_readout: 0.16
- seq_string: "RRIRVRPPRLPRPRPRPNQFPRP"
  quantitative_readout: -0.349
- seq_string: "RRIRKRPPRLPRPRPRPMWPPRP"
  quantitative_readout: -0.00167
- seq_string: "RRIRHRPPRLPRPRPRPRDAPRP"
  quantitative_readout: 0.14
- seq_string: "RRIRPRPPRLPRPRPRPHMWPRP"
  quantitative_readout: -0.175
- seq_string: "RRIRGRPPRLPRPRPRPVVHPRP"
  quantitative_readout: 0.254
- seq_string: "RRIRFRPPRLPRPRPRPYTFPRP"
  quantitative_readout: -1.3

Query :: So what does the record say about shrunken log2 fold change for RRIRYRPPRLPRPRPRPGLGPRP ?
Result :: -0.0488

Query :: And then RRIRYRPPRLPRPRPRPWRCPRP , what is it?
Result :: 2.33

Query :: And then RRIRPRPPRLPRPRPRPGIDPRP , what is it?
Result :: -0.0536

Query :: And then RRIRNRPPRLPRPRPRPECRPRP , what is it?
Result :: 0.263

Query :: And then RRIRIRPPRLPRPRPRPATDPRP , what is it?
Result :: -0.161

Query :: And then RRIRTRPPRLPRPRPRPLRSPRP , what is it?
Result :: 0.387

Query :: And then RRIRLRPPRLPRPRPRPHEKPRP , what is it?
Result :: 0.0162

Query :: And then RRIRIRPPRLPRPRPRPYIEPRP , what is it?
Result :: -0.266

Query :: And then RRIRGRPPRLPRPRPRPDMAPRP , what is it?
Result :: 0.882

Query :: And then RRIRNRPPRLPRPRPRPPDNPRP , what is it?
Result :: -0.146

Query :: And then RRIRLRPPRLPRPRPRPWWTPRP , what is it?
Result :: -0.312

Query :: And then RRIRNRPPRLPRPRPRPTRSPRP , what is it?
Result :: -0.177

Hey, just so you know, these numbers are from the supplement of paper PMC9112550.
